Just for reference, patent US20210395344A1 is where these values come from.

- target_entity: SARS-CoV-2 S1 (antigen of the Carterra SPR kinetics) (SARS-CoV-2, UniProt P0DTC2 16-685)
- method_summary: Carterra SPR
measurement_label: koff (s⁻¹)
Record the value in s⁻¹, omitting the unit from your answer.

Provide one value: measured koff of 1-47 (antibody, V domains shown, also called variant 1-47) VH: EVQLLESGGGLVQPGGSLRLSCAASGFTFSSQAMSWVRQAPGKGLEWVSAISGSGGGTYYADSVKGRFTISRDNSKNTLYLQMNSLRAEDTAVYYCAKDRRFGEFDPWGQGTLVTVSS VL: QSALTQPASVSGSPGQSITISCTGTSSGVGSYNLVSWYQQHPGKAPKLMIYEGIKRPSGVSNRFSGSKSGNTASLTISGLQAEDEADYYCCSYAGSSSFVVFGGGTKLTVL
0.24
